- Test system: immortalized ureteral epithelial cells (SV-HUC-1)
- assayNotes: CCK-8 anti-proliferative assay, normal cells SV-HUC-1
- Type: cell-based, human
- assayConditions: Homo sapiens, SV-HUC1; Table 13; normal cells; co-incubated 48 h; read-out: Anti-proliferative activity (IC50 ± standard deviation) SV-HUC-1
Checkbox rule: IC50 lower than 9 µM = True; IC50 not lower than 9 µM = False.

As a guide, the following entries are already answered.
COc1cc2ncnc(NCc3cccc(NC(=O)Nc4cccc(C)c4)c3)c2cc1OCCCCCCN1CCC(CN2CCN(c3ccccn3)CC2)CC1; True
COc1cc2ncnc(NCc3cccc(NC(=O)Nc4ccc(Cl)cc4)c3)c2cc1OCCCCCCN1CCC(CN2CCN(c3ccccn3)CC2)CC1; False
COc1cc2ncnc(NCc3cccc(NC(=O)Nc4c(Cl)cc(Cl)cc4Cl)c3)c2cc1OCCCCCCN1CCC(CN2CCN(c3ccccn3)CC2)CC1; True

Here is another compound to look at.
Query: # TODO verify IC50 < 9 µM strictly for this compound: COc1cc2ncnc(NCc3cccc(NC(=O)Nc4cc(C)cc(C)c4)c3)c2cc1OCCCCCCN1CCC(CN2CCN(c3ccccn3)CC2)CC1
Reply: False
